organism: Homo sapiens; experiment: Selectivity for human adrenergic beta-3 receptor over human adrenergic beta-1 receptor
Measure Name: Ratio Ki

Solved entries:
The recorded Ratio Ki for entry `Cc1nc(-c2ccc(OCCNC[C@H](O)c3cccnc3)cc2)co1` equals 19

The recorded Ratio Ki for entry `CCc1nc(-c2ccc(OCCNC[C@H](O)c3cccnc3)cc2)co1` equals 11

The recorded Ratio Ki for entry `O[C@@H](CNCCOc1ccc(-c2cocn2)cc1)c1cccnc1` equals 20

The recorded Ratio Ki for entry `CC(C)c1nc(-c2ccc(OCCNC[C@H](O)c3cccnc3)cc2)co1` equals 7.4

(A) OCc1nc(-c2ccc(OCCNC[C@H](O)c3cccnc3)cc2)co1
(B) O[C@@H](CNCCOc1ccc(-c2cscn2)cc1)c1cccnc1
(C) Cc1nc(-c2ccc(OCCNC[C@H](O)c3cccnc3)cc2)cs1
rank_up(items): orders items by reported Ratio Ki in ascending numerical order. // rank by listing labels in the order requested
C, A, B

###

experiment: Volume of distribution at steady state in dog; type: ADME, organism-based, Canis lupus familiaris; conditions: in vivo, read-out: Vdss
Measure Name: Vd (L/kg)
The response must be a number in L/kg with no trailing unit.

The recorded Vd for entry `O[C@@H](CNCCOc1ccc(-c2cocn2)cc1)c1cccnc1` equals 2.8

###

biological target: Beta-3 adrenergic receptor (Rattus norvegicus, UniProt P26255); experiment: Agonist activity at rat adrenergic beta-3 receptor assessed as cAMP production
Sequence (P26255 whole entry): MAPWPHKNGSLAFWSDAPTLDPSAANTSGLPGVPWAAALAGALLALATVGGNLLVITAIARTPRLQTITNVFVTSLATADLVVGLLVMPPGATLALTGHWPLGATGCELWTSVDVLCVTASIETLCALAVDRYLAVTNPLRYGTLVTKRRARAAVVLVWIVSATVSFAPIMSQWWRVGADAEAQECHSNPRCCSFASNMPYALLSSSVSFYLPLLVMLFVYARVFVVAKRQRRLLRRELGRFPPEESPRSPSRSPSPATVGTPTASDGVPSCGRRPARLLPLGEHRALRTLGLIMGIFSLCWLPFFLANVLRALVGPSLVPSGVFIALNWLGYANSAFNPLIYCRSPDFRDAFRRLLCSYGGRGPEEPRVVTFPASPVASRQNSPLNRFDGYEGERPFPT
pEC50: −log10 of the molar value.
Measure Name: pEC50

(I) O[C@@H](CNCCOc1ccc(-c2cscn2)cc1)c1cccnc1
(II) Cc1nc(-c2ccc(OCCNC[C@H](O)c3cccnc3)cc2)cs1
// compare: I vs II , metric pEC50, want the smaller Which one? Tell me its label.
I
(I: 7.59, II: 7.89)

###

test: Oral bioavailability in rat; format: ADME, organism-based; conditions: in vivo
Measure Name: bioavailability (%)
The response must be a number in % with no trailing unit.

The recorded bioavailability for entry `O[C@@H](CNCCOc1ccc(-c2cocn2)cc1)c1cccnc1` equals 66

###

molecular target: Beta-3 adrenergic receptor (Homo sapiens); assay: Intrinsic activity at human adrenergic beta-3 receptor expressed in CHO cells assessed as cAMP production relative to isoproterenol; format: functional, cell-based
Sequence (P13945 whole entry, looked up): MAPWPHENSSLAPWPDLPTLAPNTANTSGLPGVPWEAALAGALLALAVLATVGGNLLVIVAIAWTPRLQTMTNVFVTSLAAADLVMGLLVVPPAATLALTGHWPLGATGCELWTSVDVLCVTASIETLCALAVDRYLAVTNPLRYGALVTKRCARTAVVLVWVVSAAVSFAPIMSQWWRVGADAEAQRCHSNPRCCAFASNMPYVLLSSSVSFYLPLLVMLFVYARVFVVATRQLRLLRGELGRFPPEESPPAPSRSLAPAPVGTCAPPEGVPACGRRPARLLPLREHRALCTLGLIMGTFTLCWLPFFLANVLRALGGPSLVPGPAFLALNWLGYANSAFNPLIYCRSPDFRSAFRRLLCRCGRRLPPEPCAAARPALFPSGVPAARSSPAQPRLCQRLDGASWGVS
Measure Name: Intrinsic activity (%)

Solved entries:
The recorded Intrinsic activity for entry `O[C@@H](CNCCOc1ccc(-c2cscn2)cc1)c1cccnc1` equals 85

The recorded Intrinsic activity for entry `O[C@@H](CNCCc1ccc(-c2csc(C(F)(F)F)n2)cc1)c1cccnc1` equals 94

(A) Cc1nc(-c2ccc(OCCNC[C@H](O)c3cccnc3)cc2)c(C)o1
(B) O[C@@H](CNCCOc1ccc(-c2ncco2)cc1)c1cccnc1
I need your help: which of the pair A , B has higher Intrinsic activity? Which one? Tell me its label.
A
(A: 75%, B: 24%)

(1) OCc1nc(-c2ccc(OCCNC[C@H](O)c3cccnc3)cc2)co1
(2) Cc1nc(-c2ccc(CCNC[C@H](O)c3cccnc3)cc2)cs1
I need your help: which of the pair 1 , 2 has higher Intrinsic activity? Which one? Tell me its label.
1

###

assay: Clearance in dog; format: ADME, organism-based, Canis lupus familiaris; conditions: in vivo
Measure Name: clearance (mL/min/kg)
The response must be a number in mL/min/kg with no trailing unit.

The recorded clearance for entry `O[C@@H](CNCCOc1ccc(-c2cocn2)cc1)c1cccnc1` equals 6

Entry source: ChEMBL document CHEMBL1139766
